TEST TARGET: recombinant form of Glutaminase 1 (GAC) (Homo sapiens, UniProt O94925)
PROCEDURE DETAILS: Recombinant Enzyme Assay - Time Dependence (60 minutes enzyme/compound preincubation)
Type: biochemical
MEASUREMENT PARAMETERS: read-out: GAC Delta N2 IC50 60 min
ENDPOINT: IC50 (nM)

A. CC(C)(C)OC(=O)N1CCN(Cc2cc(CC(=O)Nc3nnc(CCCCc4ccc(NC(=O)Cc5ccccc5)nn4)s3)ccc2F)CC1 [Compound 493]
B. CC(C)(C)OC(=O)NCc1cccc(CC(=O)Nc2nnc(CCCCc3ccc(NC(=O)C4(C)COC(C)(C)OC4)nn3)s2)c1 [Compound 529]
C. Cc1ccccc1CC(=O)Nc1nnc(CCCCc2ccc(NC(=O)Cc3ccccc3F)nn2)s1 [Compound 536]
Prompt line: List the compounds shown above again, sorted by falling IC50 values. // rank by listing labels in the order requested
Response line: B, A, C

###

PROCEDURE DETAILS: Solubility (18 hr vortex mixing at room temperature, filtration, HPLC)
Assay type: physicochemical
MEASUREMENT PARAMETERS: 20 °C, organic solvent or mixture, thermodynamic from solid; EtOH; room temperature
ENDPOINT: solubility at 18 h (µg/mL)

Example compounds with recorded solubility at 18 h:
Prompt line: Look up solubility at 18 h: O=C(Cc1cccc(OC(F)(F)F)c1)Nc1ccc(CCCCc2nnc(NC(=O)Cc3ccccc3)s2)nn1
Response line: 1990

Prompt line: Look up solubility at 18 h: O=C(Cc1cccc(OC(F)(F)F)c1)Nc1ccc(CCCCc2nnc(NC(=O)[C@@H](O)c3ccccc3)s2)nn1
Response line: 2640

Prompt line: Look up solubility at 18 h: O=C(Cc1cccc(OC(F)(F)F)c1)Nc1ccc(CCCCc2nnc(NC(=O)C(O)c3cccc(Cl)c3)s2)nn1 (centres unmarked)
Response line: 3920

1. O=C(Cc1ccccc1)Nc1ccc(CCCCc2nnc(NC(=O)Cc3ccccc3)s2)nn1
2. CCCC(=O)OCN(C(=O)Cc1ccccc1)c1nnc(CCCCc2ccc(NC(=O)Cc3ccccc3)nn2)s1
Prompt line: Hello, I am sorting some records. Could you say if 1 or 2 has the smaller solubility at 18 h value? // respond with label for picked entry
Response line: 1

###

TEST TARGET: recombinant form of Glutaminase 1 (GAC) (Homo sapiens, UniProt O94925)
PROCEDURE DETAILS: Recombinant Enzyme Assay (GAC coupled to GDH, NADH absorbance, no preincubation)
Format: biochemical
MEASUREMENT PARAMETERS: no preincubation; read-out: GAC Delta N2 IC50 no preinc
ENDPOINT: IC50 (µM)

Prompt line: Hello, I am looking for reported IC50 with recombinant form of Glutaminase 1 (GAC) (Homo sapiens, UniProt O94925) for O=C(Cc1ccccc1)Nc1nnc(CCCCc2nnc(NC(=O)C(CO)c3ccccc3)s2)s1 (stereo not drawn) . Could you help?
Response line: 0.19

Prompt line: Hello, I am looking for reported IC50 with recombinant form of Glutaminase 1 (GAC) (Homo sapiens, UniProt O94925) for NC(C(=O)Nc1nnc(CCCCc2nnc(NC(=O)C(N)C3CCCC3)s2)s1)C1CCCC1 (stereo not drawn) . Could you help?
Response line: 19

Prompt line: Hello, I am looking for reported IC50 with recombinant form of Glutaminase 1 (GAC) (Homo sapiens, UniProt O94925) for O=C(Cc1ccccc1)Nc1nnc(CCCCc2nnc(NC(=O)[C@H]3CCCC[C@@H]3C(=O)c3ccccc3)s2)s1 . Could you help?
Response line: 0.8

Prompt line: Hello, I am looking for reported IC50 with recombinant form of Glutaminase 1 (GAC) (Homo sapiens, UniProt O94925) for COc1ccccc1C(CO)C(=O)Nc1nnc(CCSCCc2nnc(NC(=O)C(CO)c3ccccc3OC)s2)s1 (stereo not drawn) . Could you help?
Response line: 0.52

Prompt line: Hello, I am looking for reported IC50 with recombinant form of Glutaminase 1 (GAC) (Homo sapiens, UniProt O94925) for O=CO[C@@H](C(=O)Nc1nnc(CCCCc2nnc(NC(=O)[C@H](OC=O)c3ccccc3)s2)s1)c1ccccc1 . Could you help?
Response line: 4.9

A. COC(=O)C(C(=O)Nc1nnc(CCCCc2nnc(NC(=O)C(C(=O)OC)c3ccccc3)s2)s1)c1ccccc1 (stereo not drawn)
B. CC1(C(=O)Nc2nnc(CCCCc3nnc(NC(=O)C4(C)CCCO4)s3)s2)CCCO1 (stereo not drawn)
Prompt line: Hello, I am sorting some records. Could you say if A or B has the smaller IC50 value? // respond with label for picked entry
Response line: A
(A: 1.6 µM, B: 12 µM)

P. O=C(Nc1nnc(CCCCc2nnc(NC(=O)[C@@H](O)c3ccccc3)s2)s1)[C@@H](O)c1ccccc1
Q. O=C(Cc1ccsc1)Nc1nnc(CCCCc2nnc(NC(=O)Cc3ccsc3)s2)s1
R. N[C@@H](CO)C(=O)Nc1nnc(CCCCc2nnc(NC(=O)[C@@H](N)CO)s2)s1
Prompt line: Output the entries ranked by IC50 from maximum down to minimum. // rank by listing labels in the order requested
Response line: R, P, Q
